B1: TPR 5TU (parent)
chain: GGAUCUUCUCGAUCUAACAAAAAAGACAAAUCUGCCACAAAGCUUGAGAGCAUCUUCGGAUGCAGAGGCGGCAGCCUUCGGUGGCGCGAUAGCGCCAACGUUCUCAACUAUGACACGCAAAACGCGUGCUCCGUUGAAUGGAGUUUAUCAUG

Variants of: B1
method-description: polymerase ribozyme fitness, log enrichment relative to wild type (log ratio); higher = more active; in vitro selection for triplet polymerase activity
This sample holds only a part of the variants without activity.
attribute-measured: polymerase ribozyme fitness (log ratio)
One number for each entry.

Examples from the recorded data:
A113U U146C : -1.49
U55G G92U U139G U146G : -1.4
C72U G128U : -3.1

Look at each variant and report its polymerase ribozyme fitness (log ratio).
1. A12C C99A A119G U145C
2. U55A C125A

Solution:
[-1.83, -0.912]
